# credit: PubChem BioAssay

assay.remarks: drug combination growth inhibition, ovarian cancer – cell-based, oncology-focused library, rucaparib conditional, profiling panel (AID 1508598)
condition: patient-derived ovarian cancer cells, CellTiter-Glo viability, 144 h; at 0.0195 µM; OCI-P5x cells; with rucaparib 20 µM; 100% = cells with rucaparib alone
Activity calls are given as the source filed them.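 Rule for the calls: active = normalized viability below 100% at a tested concentration; inactive = the rest.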
Outcome codes: active, inactive

{"columns": ["molecule", "class.name"],
 "data": [
  ["COc1nc(C)cnc1NS(=O)(=O)c1cccnc1-c1ccc(-c2nnco2)cc1", "inactive"],
  ["Nc1nc(Nc2ccc(S(N)(=O)=O)cc2)nn1C(=O)c1c(F)cccc1F", "active"],
  ["Cc1nnc(C(C)C)n1C1CC2CCC(C1)N2CC[C@H](NC(=O)C1CCC(F)(F)CC1)c1ccccc1 (stereo not given in full)", "active"],
  ["CC(=O)c1c(C)c2cnc(Nc3ccc(N4CCNCC4)cn3)nc2n(C2CCCC2)c1=O", "active"],
  ["CN(c1ncccc1CNc1nc(Nc2ccc3c(c2)CC(=O)N3)ncc1C(F)(F)F)S(C)(=O)=O", "inactive"],
  ["O=C(Nc1ccccc1-c1cn2c(CN3CCNCC3)csc2n1)c1cnc2ccccc2n1", "inactive"],
  ["CCOc1cc(N2CCC(O)CC2)ccc1Nc1ncc2c(n1)N(C)c1ccccc1C(=O)N2C", "active"],
  ["Cn1c(=O)c(F)c(Nc2ccc(I)cc2F)c2c(=O)n(C[C@@H](O)CO)cnc21", "active"],
  ["CC(C)c1cc(-c2n[nH]c(=O)n2-c2ccc3c(ccn3C)c2)c(O)cc1O", "active"],
  ["COc1ccc(-n2c(SCCCN3C(=O)c4cccc5cccc(c45)C3=O)nnc2-c2ccncc2)cc1", "inactive"],
  ["COCCn1c2c([n+](Cc3cnccn3)c1C)C(=O)c1ccccc1C2=O", "active"],
  ["COc1c(C)cnc(Cn2cnc3c(Cl)nc(N)nc32)c1C", "inactive"],
  ["CC(/C=C/C(=O)NO)=C\\[C@@H](C)C(=O)c1ccc(N(C)C)cc1", "active"],
  ["CS(=O)(=O)c1ccc(C(=O)Nc2ccc(Cl)c(-c3ccccn3)c2)c(Cl)c1", "inactive"],
  ["CC(C)C[C@H](NC(=O)CNC(=O)c1cc(Cl)ccc1Cl)B(O)O", "active"],
  ["Cc1cnc(Nc2ccc(OCCN3CCCC3)cc2)nc1Nc1cccc(S(=O)(=O)NC(C)(C)C)c1", "active"],
  ["Cc1cc2c(F)c(Oc3ncnn4cc(OC[C@@H](C)O)c(C)c34)ccc2[nH]1", "inactive"],
  ["Cc1cnc(-c2ccccc2C(C)C)nc1NCc1ccc(-n2ccnn2)cc1", "inactive"],
  ["COc1ccc(-c2ccc3c(N4CCOCC4)nc(N4C[C@@H](C)O[C@@H](C)C4)nc3n2)cc1CO", "inactive"],
  ["NC(=O)c1ccc(I)c([N+](=O)[O-])c1", "inactive"]
]}

====

assay.remarks: viability loss with induced miR-34 in A549 – imaging, A549 dox-inducible miR-34, nuclei and caspase counts, primary screen (AID 1347080)
condition: A549 miR-34 inducible, Hoechst nuclei count, 48 h; measured here: relative caspase fold change +Dox/-Dox
readout: fold change

{"columns": ["compound", "result"],
 "data": [
  ["N#Cc1c(NC(=O)c2cccc3ccccc23)sc2c1CCCC2", 0.427],
  ["CCCCC/C=C\\C/C=C\\C/C=C\\C/C=C\\CCCC(=O)Oc1ccc2ccc(=O)oc2c1", 0.946],
  ["COC(=O)CCCCCC[C@@H]1[C@@H](CC[C@@H](O)CSc2ccccc2F)[C@H](O)C[C@@H]1O", 2.89],
  ["O=C(O)CCC/C=C\\C[C@@H]1C(=O)C[C@@H](O)[C@@H]1/C=C/[C@@H](O)CCc1ccccc1", 0.324],
  ["COc1[nH]c2ccc(F)cc2c1C(=O)OCC1CCN(CCNS(C)(=O)=O)CC1", 0.654],
  ["CCc1cccc(CC)c1NC(=O)N1Cc2[nH]nc(NC(=O)c3ccc(N4CCN(C)CC4)cc3)c2C1", 0.697],
  ["CC(C)(O)c1ccccc1CC[C@H](SCC1(CC(=O)O)CC1)c1cccc(/C=C/c2ccc3ccc(Cl)cc3n2)c1", 0.195],
  ["Cc1ccc2c(=O)c3ccccc3n(CCCN)c2c1C", 1.36],
  ["O=C1c2ccccc2C(Cc2ccnc(F)c2)(Cc2ccnc(F)c2)c2ccccc21", 1.37],
  ["CCCCC[C@H](O)/C=C/[C@H]1[C@H](O)CC(=O)[C@H]1C/C=C\\CCCC(=O)OC(C)C", 1.45],
  ["NS(=O)(=O)c1cccc2c1c([N+](=O)[O-])cc1[nH]c(=O)c(=O)[nH]c12", 0.625],
  ["Cc1c(Cn2c(C)nc3c(C(=O)O)cc(N4CCOCC4)cc32)cccc1C(F)(F)F", 0.358],
  ["O=C(NCc1ccncc1)C12CC3CC(C1)CC(c1ccc(Cl)cc1)(C3)C2", 1.12],
  ["C#CCN1C(C)=C(C(=O)OC)C(c2cccc([N+](=O)[O-])c2)C(C(=O)OCC)=C1C (stereo not given)", 0.816],
  ["CCCCC[C@@H](O)/C=C/[C@H]1C=CC(=O)[C@@H]1CCCCCCC(=O)O", 0.638],
  ["CCCCCCCCCCCCCCCCC/C=C/C(=O)O", 0.547],
  ["O=C(Cc1ccc(-c2ccc(OCCN3CCOCC3)cc2)cn1)NCc1ccccc1", 0.488],
  ["COc1nc(N)nc2c1ncn2C1OC(CO)C(O)C1O (stereo not given)", 0.879],
  ["CCOc1c2c(c(OCC)c3ccccc13)C(=O)N(c1ccc(CC(=O)NS(=O)(=O)c3ccccc3)cc1)C2", 1.11],
  ["C=CC(=O)Nc1cccc(Oc2nc(Nc3ccc(N4CCN(C)CC4)cc3OC)ncc2Cl)c1", 0.924]
]}
